inhibition (INH) values by entry
# System: Rattus norvegicus
# PROTOCOL DESCRIPTION: Antiinflammatory activity against albino rats assessed as inhibition of carrageenan-induced paw edema at 0.5 mmol, po measured after 4 hrs relative to control
# Assay type: functional
Reply numerically in %, unit not repeated.

>  <COMPOUND>
N#Cc1c(/N=C/c2ccco2)c(C(=O)Nc2ccc(Br)cc2)n2c1CCC2

>  <inhibition (INH) (%)>
35.79

$$$$

INPUT: Looking for the measured inhibition (INH) of "N#Cc1c(/N=C/c2ccc(O)cc2)c(C(=O)Nc2ccc(Br)cc2)n2c1CCC2" , can you help?
OUTPUT: 44.51

INPUT: Looking for the measured inhibition (INH) of "CC/C=N/c1c(C#N)c2n(c1C(=O)Nc1ccc(Cl)cc1)CCC2" , can you help?
OUTPUT: 24.06

INPUT: Looking for the measured inhibition (INH) of CCC1SCC(=O)N1c1c(C#N)c2n(c1C(=O)Nc1ccc(Cl)cc1)CCC2 (stereo not given) , can you help?
OUTPUT: 32.48

INPUT: Looking for the measured inhibition (INH) of "CC(C)C/C=N/c1c(C#N)c2n(c1C(=O)Nc1ccc(Br)cc1)CCC2" , can you help?
OUTPUT: 30.82

---

# ASSAY TARGET: Casein kinase I isoform alpha (Homo sapiens) (UniProt P48729)
# Sequence (P48729 2-337 limits assumed): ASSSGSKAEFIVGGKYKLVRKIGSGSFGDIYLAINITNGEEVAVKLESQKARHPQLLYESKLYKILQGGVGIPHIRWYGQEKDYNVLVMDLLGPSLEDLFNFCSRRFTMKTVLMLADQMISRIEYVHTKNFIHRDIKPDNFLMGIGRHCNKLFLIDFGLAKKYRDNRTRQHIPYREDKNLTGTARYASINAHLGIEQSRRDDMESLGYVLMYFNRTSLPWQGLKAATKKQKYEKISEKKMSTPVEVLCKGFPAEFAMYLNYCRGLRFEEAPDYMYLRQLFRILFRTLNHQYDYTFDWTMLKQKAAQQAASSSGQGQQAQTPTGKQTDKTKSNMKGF
# PROTOCOL DESCRIPTION: Inhibition of CK1alpha1 (unknown origin) assessed as enzyme activity incubated for 15 mins by [gamma-33]ATP based scintillation counting method relative to control
# Set-up: scale not given: the % may be the effect or the level left
VALUE TYPE: Activity (%)
Reply numerically in %, unit not repeated.

Worked examples follow.
>  <COMPOUND>
CC(C)C/C=N/c1c(C#N)c2n(c1C(=O)Nc1ccc(Br)cc1)CCC2

>  <READOUT UNITS>
%

>  <ENDPOINT VALUE>
6

$$$$
>  <COMPOUND>
Cc1ccc(NC(=O)c2ccc(CN3CCN(C)CC3)cc2)cc1Nc1nccc(-c2cccnc2)n1

>  <READOUT UNITS>
%

>  <ENDPOINT VALUE>
0

$$$$
>  <COMPOUND>
CCC1SCC(=O)N1c1c(C#N)c2n(c1C(=O)Nc1ccccc1)CCC2 (centres undefined)

>  <READOUT UNITS>
%

>  <ENDPOINT VALUE>
-16

$$$$

Moving on to another compound below.
INPUT: Looking for the measured Activity of "CC/C=N/c1c(C#N)c2n(c1C(=O)Nc1ccccc1)CCC2" , can you help?
OUTPUT: -23

---

# Tested on: MCF7
# PROTOCOL DESCRIPTION: Cell cycle arrest in human MCF7 cells assessed as S phase accumulation at 1 uM incubated for 24 hrs by propidium iodide based flow cytometry (reference value: 17.3 to 28.5 %)
# Format: functional
Activity values by entry
Reply numerically in %, unit not repeated.

Worked examples follow.
>  <COMPOUND>
N#Cc1c(/N=C/c2ccco2)c(C(=O)Nc2ccc(Br)cc2)n2c1CCC2

>  <ASSAY TARGET>
MCF7

>  <Activity (%)>
53.7

$$$$
>  <COMPOUND>
CCC1SCC(=O)N1c1c(C#N)c2n(c1C(=O)Nc1ccccc1)CCC2 (centres undefined)

>  <ASSAY TARGET>
MCF7

>  <Activity (%)>
20.6

$$$$
>  <COMPOUND>
N#Cc1c(/N=C/c2ccc(O)cc2)c(C(=O)Nc2ccc(Br)cc2)n2c1CCC2

>  <ASSAY TARGET>
MCF7

>  <Activity (%)>
54.1

$$$$

Moving on to another compound below.
INPUT: What is its Activity for MCF7? Entry: "CC(C)C/C=N/c1c(C#N)c2n(c1C(=O)Nc1ccc(Br)cc1)CCC2"
OUTPUT: 55.6

---

Activity values by entry
# ASSAY TARGET: Rhodopsin kinase GRK1 (Homo sapiens)
# Sequence (whole entry): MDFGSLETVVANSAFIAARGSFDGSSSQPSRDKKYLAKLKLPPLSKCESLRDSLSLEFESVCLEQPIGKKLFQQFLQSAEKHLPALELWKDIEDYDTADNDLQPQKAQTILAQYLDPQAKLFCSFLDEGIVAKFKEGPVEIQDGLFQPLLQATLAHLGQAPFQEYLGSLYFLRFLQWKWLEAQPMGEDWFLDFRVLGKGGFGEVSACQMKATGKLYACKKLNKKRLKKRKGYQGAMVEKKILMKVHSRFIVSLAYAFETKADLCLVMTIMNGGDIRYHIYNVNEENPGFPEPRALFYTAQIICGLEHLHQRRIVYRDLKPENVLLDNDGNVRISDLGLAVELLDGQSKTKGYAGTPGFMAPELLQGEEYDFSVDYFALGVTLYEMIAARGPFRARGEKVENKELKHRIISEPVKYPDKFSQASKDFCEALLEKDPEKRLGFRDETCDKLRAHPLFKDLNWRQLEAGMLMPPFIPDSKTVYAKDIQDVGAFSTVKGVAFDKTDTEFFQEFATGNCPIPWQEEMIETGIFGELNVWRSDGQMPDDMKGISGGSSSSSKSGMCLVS
# PROTOCOL DESCRIPTION: Inhibition of GRK1 (unknown origin) assessed as enzyme activity incubated for 15 mins by [gamma-33]ATP based scintillation counting method relative to control
# Set-up: scale not given: the % may be the effect or the level left
Reply numerically in %, unit not repeated.

>  <MOLECULE>
CC/C=N/c1c(C#N)c2n(c1C(=O)Nc1ccccc1)CCC2

>  <ASSAY TARGET>
Rhodopsin kinase GRK1 (Homo sapiens)

>  <ENDPOINT VALUE>
-10

$$$$
>  <MOLECULE>
Cc1ccc(NC(=O)c2ccc(CN3CCN(C)CC3)cc2)cc1Nc1nccc(-c2cccnc2)n1

>  <ASSAY TARGET>
Rhodopsin kinase GRK1 (Homo sapiens)

>  <ENDPOINT VALUE>
2

$$$$
>  <MOLECULE>
CCC1SCC(=O)N1c1c(C#N)c2n(c1C(=O)Nc1ccccc1)CCC2 (centres undefined)

>  <ASSAY TARGET>
Rhodopsin kinase GRK1 (Homo sapiens)

>  <ENDPOINT VALUE>
-9

$$$$

Moving on to another molecule below.
INPUT: What is its Activity for Rhodopsin kinase GRK1 (Homo sapiens)? Entry: "CC(C)C/C=N/c1c(C#N)c2n(c1C(=O)Nc1ccc(Br)cc1)CCC2"
OUTPUT: 1

---

# ASSAY TARGET: Serine/threonine-protein kinase Sgk1 (Homo sapiens)
# PROTOCOL DESCRIPTION: Inhibition of recombinant human N-terminal GST-tagged SGK1 (60 to end residues) expressed in baculovirus infected Sf9 insect cells assessed as enzyme activity incubated for 15 mins by [gamma-33]ATP based scintillation counting method relative to control
# Set-up: scale not given: the % may be the effect or the level left
VALUE TYPE: Activity (%)
Reply numerically in %, unit not repeated.

Worked examples follow.
>  <COMPOUND>
CCC1SCC(=O)N1c1c(C#N)c2n(c1C(=O)Nc1ccccc1)CCC2 (centres undefined)

>  <ENDPOINT VALUE>
8

$$$$
>  <COMPOUND>
CC/C=N/c1c(C#N)c2n(c1C(=O)Nc1ccccc1)CCC2

>  <ENDPOINT VALUE>
-14

$$$$
>  <COMPOUND>
Cc1ccc(NC(=O)c2ccc(CN3CCN(C)CC3)cc2)cc1Nc1nccc(-c2cccnc2)n1

>  <ENDPOINT VALUE>
3

$$$$

Moving on to another compound below.
INPUT: Looking for the measured Activity of "CC(C)C/C=N/c1c(C#N)c2n(c1C(=O)Nc1ccc(Br)cc1)CCC2" , can you help?
OUTPUT: 7

---

# ASSAY TARGET: Glycogen synthase kinase-3 alpha (Homo sapiens) (UniProt P49840)
# Sequence (P49840 2-483 limits assumed): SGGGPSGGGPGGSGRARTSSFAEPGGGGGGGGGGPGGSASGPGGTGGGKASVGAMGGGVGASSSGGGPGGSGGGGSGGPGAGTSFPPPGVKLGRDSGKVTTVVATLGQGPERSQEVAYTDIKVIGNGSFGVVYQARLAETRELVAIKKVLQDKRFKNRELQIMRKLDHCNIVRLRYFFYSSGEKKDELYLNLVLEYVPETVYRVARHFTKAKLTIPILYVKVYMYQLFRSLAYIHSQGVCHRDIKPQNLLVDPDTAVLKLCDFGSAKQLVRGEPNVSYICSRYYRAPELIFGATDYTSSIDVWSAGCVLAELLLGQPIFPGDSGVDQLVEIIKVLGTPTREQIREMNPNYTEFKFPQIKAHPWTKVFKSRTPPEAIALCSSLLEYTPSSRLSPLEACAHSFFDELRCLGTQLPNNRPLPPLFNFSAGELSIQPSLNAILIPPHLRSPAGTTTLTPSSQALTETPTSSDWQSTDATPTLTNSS
# PROTOCOL DESCRIPTION: Inhibition of recombinant human N-terminal GST-tagged full length GSK3alpha expressed in baculovirus infected Sf9 insect cells assessed as enzyme activity incubated for 15 mins by [gamma-33]ATP based scintillation counting method relative to control
# Parameters: scale not given: the % may be the effect or the level left
VALUE TYPE: Activity (%)
Reply numerically in %, unit not repeated.

>  <MOLECULE>
CC(C)C/C=N/c1c(C#N)c2n(c1C(=O)Nc1ccc(Br)cc1)CCC2

>  <Activity [%]>
-3

$$$$
>  <MOLECULE>
CC/C=N/c1c(C#N)c2n(c1C(=O)Nc1ccccc1)CCC2

>  <Activity [%]>
-24

$$$$
>  <MOLECULE>
CCC1SCC(=O)N1c1c(C#N)c2n(c1C(=O)Nc1ccccc1)CCC2 (centres undefined)

>  <Activity [%]>
-12

$$$$

Moving on to another molecule below.
INPUT: Looking for the measured Activity of "Cc1ccc(NC(=O)c2ccc(CN3CCN(C)CC3)cc2)cc1Nc1nccc(-c2cccnc2)n1" , can you help?
OUTPUT: -1

---

# ASSAY TARGET: Cyclin-dependent kinase 2 (Homo sapiens, UniProt P24941)
VALUE TYPE: pIC50
Field pIC50 (float): negative decimal logarithm of the concentration in molar.

INPUT: Looking for the measured pIC50 of CCC1SCC(=O)N1c1c(C#N)c2n(c1C(=O)Nc1ccccc1)CCC2 (stereo unspecified) , can you help?
OUTPUT: 6.20

FYI, the data here is from ChEMBL document CHEMBL4312005.
